Molecular target: human LPA1 (Homo sapiens, UniProt Q92633)
Construct: expressed in transfected cells; host or cells: CHO-K1
Sequence (Q92633 whole entry): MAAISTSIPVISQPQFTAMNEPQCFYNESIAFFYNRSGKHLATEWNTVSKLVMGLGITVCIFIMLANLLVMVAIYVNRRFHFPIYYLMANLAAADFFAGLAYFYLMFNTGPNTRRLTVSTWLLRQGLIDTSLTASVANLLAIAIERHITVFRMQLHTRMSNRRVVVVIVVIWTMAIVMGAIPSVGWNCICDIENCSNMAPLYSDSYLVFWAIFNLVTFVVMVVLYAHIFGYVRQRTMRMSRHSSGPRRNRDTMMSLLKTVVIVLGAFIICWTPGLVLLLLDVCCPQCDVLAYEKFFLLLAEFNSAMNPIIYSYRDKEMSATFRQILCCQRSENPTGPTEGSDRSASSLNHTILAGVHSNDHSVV
Experiment: In vitro LPA1 calcium flux antagonist assay, Bioduro protocol
Assay type: cell-based
Conditions: CHO-K1 cells overexpressing human LPA1 and G15a; LPA challenge at EC80; calcium mobilization on FLIPR Tetra; read-out: IC50 (nM) in Assay B2
Method: In Vitro LPA1 Calcium Flux Antagonist Assay Bioduro Protocol CHO-K1 cells overexpressing human LPA1 and G15a were seeded at a total volume of 20 uL (15000 cells/well) into Matrigel pre-coated 384-well plates (coming -3764) and incubated at 37° C. After overnight incubation, the cells were serum starved for 4 h. […] Calcium mobilization was measured on a FLIPR Tetra (MDS). […] Percentage inhibition is calculated using the following formula: […]
Quantity: IC50 (nM)
I only need the number, in nM, no unit after it.

Value of IC50 reported for the compound "COc1cc([C@@H](O)[C@H](Cn2cc3cncc(C(=O)O)c3n2)OC2CCCC2)cc(OC)c1C" is 49.6

The measured IC50 associated with "CCOc1cc([C@@H](O)[C@H](Cn2cc3nccc(C(=O)O)c3n2)OC2CCCC2)cc(OCC)c1C" reads 530

So, "COc1cc([C@@H](O)[C@H](Cc2cc3c(OC)ccc(C(=O)O)n3n2)OC2Cc3ccccc3C2)cc(OC)c1C" ? Its IC50 was 5

For record "COc1cc([C@@H](O)[C@H](Cc2cc3cc(C)cc(C(=O)O)n3n2)OC2CCCC2)cc(OC)c1C" the listed IC50 is 13

Short answer for "CCOc1cc(C(=O)O)c2nc(C[C@H](OC3CCCC3)[C@H](O)c3cc(OC)c(C)c(OC)c3)sc2c1" : IC50 was 1.65

Query "COCc1sc(C[C@H](OC2CCCC2)[C@H](O)c2cc(OC)c(C)c(OC)c2)nc1CC(=O)O" yields IC50 of 60.2

// sample "COc1cc([C@@H](O)[C@H](Cn2cc3nccc(C(=O)O)c3n2)OC2CCCC2)c(Cl)cc1C" , its IC50 was 938

Documented IC50 of "COc1cc([C@@H](O)[C@H](Cc2nc3c(C(=O)O)cc(C4CC4)cc3s2)OCC(C)C)cc(OC)c1C" : 2.19

IC50 reported for this compound "COc1cc([C@@H](O)[C@H](Cc2nc3c(C(=O)O)cc(C(F)(F)F)cc3s2)OCC(C)C)cc(OC)c1C" : 5.79

Lab note: "COc1cc([C@@H](O)[C@H](Cn2cc3nccc(C(=O)O)c3n2)OC2CCCC2)cc(OC)c1C1CC1" gave IC50 of 507

IC50 reading for "COc1cc([C@@H](O)[C@H](Cc2cn3cc(C)cc(C(=O)O)c3n2)OC2CCCC2)cc(OC)c1C" : 1300

Briefly, IC50 measured for "COc1cc([C@@H](O)[C@H](Cn2cc3cc(CNC(C)=O)cc(C(=O)O)c3n2)OC2CCCC2)cc(OC)c1C" : 106

Lookup result for COc1cc([C@@H](O)[C@H](Cc2nc([C@@H](C)C(=O)O)c(C)s2)OC2CCCC2)cc(OC)c1C (single isomer, unassigned) ; measured IC50: 885

Short answer for "COc1cc([C@@H](O)[C@H](Cc2nc3c(C(=O)O)cncc3s2)OC2CCCC2)cc(OC)c1C" : IC50 was 9.95

Entry "COc1cc([C@@H](O)[C@H](Cn2cc3nccc(C(=O)O)c3n2)OC2CCCC2)ccc1C" — recorded IC50 = 662

The value of IC50 measured for the compound "COc1cc([C@@H](O)[C@H](Cn2cc3cccc(C(=O)O)c3n2)OC2CCCCC2)ccc1C(F)F" turned out to be 525

For this compound ( "COc1cc([C@@H](O)[C@H](Cc2nc3c(C(=O)O)cccc3s2)OC2CCCC2)cc(OC)c1C" ), measured IC50 is 6.3

Documented IC50 of COc1cc([C@@H](O)[C@H](Cn2nnc3cccc(C(=O)O)c32)OC2CCCC2)cc(OC)c1C (racemic) : 812

What the record says about "COc1cc([C@@H](O)[C@H](Cn2cc3ccnc(C(=O)O)c3n2)OC2CCCC2)cc(OC)c1C" : IC50 is 55.8

Entry "COc1cc([C@@H](O)[C@H](Cc2nc(CC(=O)O)c(C)s2)OC2CCCC2)cc(OC)c1C" — recorded IC50 = 154

Value of measured IC50 for the entry "COc1cc([C@@H](O)[C@H](Cn2cc3cc(C#N)cc(C(=O)O)c3n2)OC2CCCC2)ccc1C(F)F" : 29.3

Lab note: measured IC50 of "COc1c(C)ccc([C@@H](O)[C@H](Cn2cc3nccc(C(=O)O)c3n2)OC2CCCC2)c1Cl" was 1130

// recorded IC50 for "COc1cc([C@@H](O)[C@H](Cc2nc3c(C(=O)O)cc(C)cc3s2)OC2CCCC2)cc(OC)c1C" : 4.12

Just so you know, measured IC50 for "COc1cc(C(=O)O)c2nc(C[C@H](OC3CCCC3)[C@H](O)c3cc(OC)c(C)c(OC)c3)sc2c1" came out at 1.93

Value of measured IC50 for the entry "COc1cc(C(=O)O)c2nc(C[C@H](OC3Cc4ccccc4C3)[C@H](O)c3cc(OC)c(C)c(OC)c3)sc2c1" : 3.71
